- target or system: UniProt:P21731
- test details: In vitro thromboxane A2 receptor antagonism through inhibition of U-46619-induced platelet aggregation in human whole blood.
- Format: functional, tissue-based
- applied conditions: read-out: pA2 (converted)
quantity: Kb (nM)

{"molecule": "CCCCc1ccncc1-c1ccc(CO[C@@H]2CC[C@H](N3CCCCCC3)[C@H]2OC/C=C\\CCC(=O)O)cc1", "target or system": "UniProt:P21731", "data value": 3.98}
{"molecule": "O=C(O)CC/C=C\\CO[C@H]1[C@H](OCc2ccc(-c3cccnc3CO)cc2)CC[C@@H]1N1CCCCCC1", "target or system": "UniProt:P21731", "data value": 3.16}
{"molecule": "O=C(O)CCCCO/N=C(/c1cccnc1)c1cccc(C(F)(F)F)c1", "target or system": "UniProt:P21731", "data value": 3980}
{"molecule": "O=C(O)CC/C=C\\CO[C@H]1[C@H](OCc2ccc(-c3cncc(CO)c3)cc2)CC[C@@H]1N1CCCCCC1", "target or system": "UniProt:P21731", "data value": 6.31}

(a) CC(C)(C)c1ccncc1-c1ccc(CO[C@@H]2CC[C@H](N3CCCCCC3)[C@H]2OC/C=C\CCC(=O)O)cc1
(b) O=C(O)CC/C=C\CO[C@H]1[C@H](OCc2ccc(-c3ccncc3)cc2)CC[C@@H]1N1CCCCCC1
(c) CCc1ccncc1-c1ccc(CO[C@@H]2CC[C@H](N3CCCCCC3)[C@H]2OC/C=C\CCC(=O)O)cc1
(d) O=C(O)CCCC/C=C(\c1ccccc1)c1cccnc1 [(E)-ISBOGREL]
Your job: order these 4 records by Kb, ascending. Could you list the labels in the order requested? c, a, b, d

* * *

- target or system: Thromboxane A2 receptor (Homo sapiens)
- Sequence (P21731 whole entry): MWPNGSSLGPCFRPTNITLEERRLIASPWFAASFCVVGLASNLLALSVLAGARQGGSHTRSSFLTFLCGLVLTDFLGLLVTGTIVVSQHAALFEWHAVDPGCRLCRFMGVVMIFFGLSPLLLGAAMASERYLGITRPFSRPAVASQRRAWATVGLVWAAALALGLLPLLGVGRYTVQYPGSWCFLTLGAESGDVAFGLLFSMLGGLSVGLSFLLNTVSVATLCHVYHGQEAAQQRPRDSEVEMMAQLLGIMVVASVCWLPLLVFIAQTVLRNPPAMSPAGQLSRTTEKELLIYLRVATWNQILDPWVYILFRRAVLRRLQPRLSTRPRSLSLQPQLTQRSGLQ
- test details: In vitro thromboxane A2 receptor antagonism through inhibition of U-46619-induced platelet aggregation in human whole blood.
- Type: functional, tissue-based
- applied conditions: read-out: pA2 (converted)
quantity: Kb (nM)

{"molecule": "O=C(O)CC/C=C\\CO[C@H]1[C@H](OCc2ccc(-c3cccnc3)cc2)CC[C@@H]1N1CCCCCC1", "quantity": "Kb", "quantity unit": "nM", "data value": 12.6}
{"molecule": "CCCc1ccncc1-c1ccc(CO[C@@H]2CC[C@H](N3CCCCCC3)[C@H]2OC/C=C\\CCC(=O)O)cc1", "quantity": "Kb", "quantity unit": "nM", "data value": 2.51}
{"molecule": "O=C(O)CC/C=C\\CO[C@H]1[C@H](OCc2ccc(-c3cnccc3CO)cc2)CC[C@@H]1N1CCCCCC1", "quantity": "Kb", "quantity unit": "nM", "data value": 3.16}
{"molecule": "CCc1cnccc1-c1ccc(CO[C@@H]2CC[C@H](N3CCCCCC3)[C@H]2OC/C=C\\CCC(=O)O)cc1", "quantity": "Kb", "quantity unit": "nM", "data value": 6.31}
{"molecule": "O=C(O)CC/C=C\\CO[C@H]1[C@H](OCc2ccc(-c3cnccc3CCO)cc2)CC[C@@H]1N1CCCCCC1", "quantity": "Kb", "quantity unit": "nM", "data value": 3.16}

(A) Cc1ccncc1-c1ccc(CO[C@@H]2CC[C@H](N3CCCCCC3)[C@H]2OC/C=C\CCC(=O)O)cc1
(B) Cc1cnccc1-c1ccc(CO[C@@H]2CC[C@H](N3CCCCCC3)[C@H]2OC/C=C\CCC(=O)O)cc1
Between the entries labelled A and B , which has a larger Kb value on record? Pick one and reply with its label. B
